// provenance: PubChem BioAssay (NCI)

Tested on: SK-MEL-28 melanoma
Assay info: NCI-60 one-dose screen, 48 h (100 = growth as untreated, 0 = no growth, -100 = all killed)
Particulars: 10 µM unless noted
This is part of a sample that, as a whole, favours compounds with a hit. Of some 83,000 tested, about 20% had one in any assay.
Listing: growth of selected compounds
Measurement name: growth (%)

> print(dat)
                                    compound      assayed.system  experimental.result
 1          CCc1c(Cl)nc(N)nc1Nc1ccc(C)c(C)c1  SK-MEL-28 melanoma                  103
 2        CN(C)CCC(=O)c1ccc([N+](=O)[O-])cc1  SK-MEL-28 melanoma                  104
 3  CC(=O)Nc1ccc(-n2cnc3cc(-c4ccc(OCCN5CCCCC5)cc4)ccc32)cc1  SK-MEL-28 melanoma                  107
 4  COc1cc(F)c(/C=C/c2cc(/C=C/c3cc(OC)c(OC)cc3F)on2)cc1OC  SK-MEL-28 melanoma                 82.7
 5  O=C(NCCc1ccccc1)Nc1ccc2cc3ccc(NC(=O)NCCc4ccccc4)cc3nc2c1  SK-MEL-28 melanoma                -29.4
 6  Cc1ccc(S(=O)(=O)NNC(=O)/C(=C\c2ccc(Cl)cc2)c2nc3ccccc3s2)cc1  SK-MEL-28 melanoma                  101
 7  COc1c(Cl)c2c(c(OC)c1OC)-c1ccc(SC)c(=O)cc1[C@@H](NC(=O)OCC(F)(F)F)CC2  SK-MEL-28 melanoma                   63
 8  N#C/C(=C\c1ccc([N+](=O)[O-])s1)c1nc2cc(Cl)ccc2s1  SK-MEL-28 melanoma                 21.1
 9  COc1cc(/C=C\c2cc(/C=C\c3ccc(O)c(OC)c3)n(C(=O)COc3ccccc3)n2)ccc1O  SK-MEL-28 melanoma                 18.4
10  O=C1c2cccc3c(-c4ccc5c(c4)ncn5C4CCCCC4)ccc(c23)C(=O)N1c1nc2ccccc2s1  SK-MEL-28 melanoma                 96.6
11  C=C1C(=O)O[C@H]2[C@H]1CC/C(COC(=O)NCC(C)c1ccc(CC(C)C)cc1)=C\CC[C@@]1(C)O[C@@H]21 (stereo not given in full)  SK-MEL-28 melanoma                -66.7
12  CCNC(=O)Oc1ccc(/C(=C(\C)c2ccccc2)c2ccc(OCCCN(C)C)cc2)cc1  SK-MEL-28 melanoma                   58
13                     COCc1cnccc1NC1CCCCCC1  SK-MEL-28 melanoma                  110
14  COC(=O)C(OC(C)=O)C(OC(C)=O)c1ccc(OC)c(OC)c1 (stereo not given)  SK-MEL-28 melanoma                  102
15  O=C(Nc1ccc(F)cc1)Nc1ccc(NC(=O)c2cc(Cl)nc3ccccc23)cc1  SK-MEL-28 melanoma                 77.7
16  O=S(=O)(NCCNc1nccc(-c2c(-c3cccc(O)c3)nc3occn23)n1)c1cccc(F)c1  SK-MEL-28 melanoma                 50.1
17  COc1ccc(C(=O)CSc2nc(-c3cc(OC)ccc3OC)cc(-c3ccc(Cl)cc3)c2C#N)cc1  SK-MEL-28 melanoma                 32.1
18  COc1ccc(C(=O)c2cc(C)c(OC)c(C)c2)c(OC)c1N(C(=O)CCl)C(=O)CCl  SK-MEL-28 melanoma                   54
19  NS(=O)(=O)c1ccc(CCN2C(=O)c3cc(Cl)c(Cl)cc3C2=O)cc1  SK-MEL-28 melanoma                  110
20  NS(=O)(=O)c1ccc(CCn2c(SCC(=O)c3ccc(Cl)cc3)nc3ccccc3c2=O)cc1  SK-MEL-28 melanoma                  113

###

Listing: growth of selected molecules
Test system: OVCAR-8 ovarian
Assay info: NCI-60 one-dose screen, 48 h (100 = growth as untreated, 0 = no growth, -100 = all killed)
Particulars: 10 µM unless noted
Description: Growth inhibition of the OVCAR-8 human tumor cell line is measured as a screen for anti-cancer activity. Cells are grown in 96 well plates and exposed to the test compound for 48 hours. Compounds are tested at a single concentration, which is 10^-5 M for most compounds. The reported endpoint is percent growth (GI% or GIPRCNT), where numbers from 0 - 100% represent growth inhibition, and numbers from -100% - 0 represent cell death. For example, a value of 40 represents 60% growth inhibition. […]
About 83,000 compounds went through this panel and 20% of them were active in at least one assay; those are over-represented in the sample as a whole.

Molecule	growth (%)
COc1cc2nc(-c3ccc(Cl)cc3)cc(OCCCN3CCCC3)c2cc1OC	56.2
O=C(Cc1ccc(/C=C/C(=O)c2ncc[nH]2)cc1)Nc1ccc(Cl)cc1	-6.61
COc1ccc(-c2nc(S(=O)(=O)c3ccccc3)c(S(=O)CC(=O)N3CCC(C)CC3)o2)cc1 (stereo not given)	33.9
CN(C)c1ccc(Nc2c3ccccc3nc3cc(NC(=O)CCN4CCCC4)ccc23)cc1	4.51
O=C(c1nnc(Nc2ccccc2Br)o1)c1c[nH]c2ccccc12	94.9
OCc1cnccc1NCCCCOc1ccc(Oc2ccccc2)cc1	65.1
CCCCCCCCO/N=C\c1c2c(O)c3c(O)c(C)c4c(c3c1O)C(=O)C(C)(O/C=C\C(OC)C(C)C(OC(C)=O)C(C)C(O)C(C)C(O)C(C)/C=C\C=C(\C)C(=O)N2)O4 (stereo not given)	24
COc1cc2oc(-c3cccc(C(=O)Nc4ccc5c(c4)OCO5)c3)cc(=O)c2c(O)c1OC	30.6
COc1ccccc1/C=C1\Oc2cc(OCCN3CCCC3)ccc2C1=O	91.8
COc1ccccc1NS(=O)(=O)c1cccc(C(=O)Nc2ccc(Br)cc2)c1	57.6
CCOC(=O)c1cc(C#N)n2ccc3ccccc3c12	100
O=S(=O)(NCCNc1nccc(-c2c(-c3cccc(F)c3)nc3sccn23)n1)c1ccccc1	33.9
COc1ccc(C/C(C)=C(/c2ccc(OCCCN(C)C)cc2)c2ccc(OC(C)=O)cc2)cc1	95.5
N#CC1=C(N)Oc2c(cnn2-c2ccc([N+](=O)[O-])cc2[N+](=O)[O-])C1c1ccccc1 (stereo not given)	101
C=C1C(=O)O[C@H]2[C@H]1CC/C(COC(=O)NCc1c[nH]c3ccc(Cl)cc13)=C\CC[C@@]1(C)O[C@@H]21	-59.2
c1ccc2c(-c3nccs3)c[nH]c2c1	106
N#C/C(=C\c1ccc(Cl)cc1)n1nnc2cc(F)c(F)cc21	13.3
C=C1C(=O)O[C@H]2[C@H]1CC/C(C(=O)NCCCCCNC(=O)/C1=C/CC[C@@]3(C)O[C@H]3[C@H]3OC(=O)C(=C)[C@@H]3CC1)=C\CC[C@@]1(C)O[C@@H]21	103
COc1ccc(C(=O)c2cc(OC)c(OC)c(OC)c2)cc1O	14.1
NC(=NCCCOc1ccc(F)cc1)Nc1ccc(Cl)cc1	90.1

###

System: RXF 393 renal
Assay info: NCI-60 one-dose screen, 48 h
Particulars: 10 µM unless noted
Compounds without any hit were thinned out: in the full panel of roughly 83,000, 20% have a hit. The source made the active and inactive calls. How the source made its calls: active means growth percent below 10; inactive means the rest.
Labels: active, inactive

Molecule	Assayed system	Class name
Cc1ccc(C(=O)/C(=C\c2ccc([N+](=O)[O-])cc2)S(=O)Cc2ccc(Cl)cc2)cc1 (centres undefined)	RXF 393 renal	active
C[C@H]1[C@H](C)CC[C@]2(C(=O)NCC#CCN3CCN(C)CC3)CC[C@]3(C)C(=CC[C@@H]4[C@@]5(C)Cc6c([nH]c7ccccc67)C(C)(C)[C@@H]5CC[C@]43C)[C@H]12	RXF 393 renal	inactive
N#C/C(=C\c1c(-c2ccccc2)[nH]c2ccccc12)C(=O)c1ccc(Cl)cc1	RXF 393 renal	inactive
COc1cc2nc(-c3ccc(Cl)cc3)cc(OCCCN3CCCCC3)c2cc1OC	RXF 393 renal	inactive

###

System: SNB-19 CNS
Assay info: NCI-60 one-dose screen, 48 h
Particulars: 10 µM unless noted
About 83,000 compounds went through this panel and 20% of them were active in at least one assay; those are over-represented in the sample as a whole. Calls of active or inactive are those of the source. The calls were made as follows: active = growth percent below 10; inactive = the rest.
Labels: Y for active, N for inactive

Molecule	Class name
N#Cc1c(-c2cccc([N+](=O)[O-])c2)nc(SCC(=O)c2ccc(Cl)cc2)[nH]c1=O	N
CN1CCN(c2ccc(NC3=C(Cl)C(=O)c4ncccc4C3=O)cc2C(F)(F)F)CC1	N
Cc1c(C(=O)NCCC(=O)NO)sc2ncnc(Nc3ccc(F)c(Cl)c3)c12	N
C=CCN1C(=O)/C(=C/C(=O)OC)S/C1=N\NC(=O)c1cc2ccc1/C=C\c1ccc(cc1)/C=C\2	N
Cc1nc2ccc(Cl)cn2c1-c1nnc(SCc2ccc([N+](=O)[O-])cc2)o1	N
CCSCC1CC(O)(c2ccccc2)CC(c2ccc(F)cc2)O1 (stereo not drawn)	N
CCc1ccc(-c2cn3ccnc3c(-c3ccc4ncn(Cc5ccccc5)c4c3)n2)cc1	N
Cc1c(C)c([N+](=O)[O-])c(C)c([N+](=O)[O-])c1C	N
Cc1cccc(-c2cn3ccnc3c(-c3ccc4ncn(Cc5ccccc5)c4c3)n2)c1	N
O=[N+]([O-])c1ccc(N=Nc2cc(S(=O)(=O)O)c3cccc(S(=O)(=O)O)c3c2O)cc1	N
C=C(C)[C@@H]1CC[C@]2(C(=O)N3CCN(C)CC3)CC[C@]3(C)[C@H](CC[C@@H]4[C@@]5(C)C/C(=C/c6ccncc6)C(=O)C(C)(C)[C@@H]5CC[C@]43C)[C@@H]12	N
CCCCCCNC(=O)Oc1ccc(/C(=C(\C)c2ccccc2)c2ccc(OCCCN(C)C)cc2)cc1	N
O=C1Nc2cc(-c3ccc(NS(=O)(=O)c4ccccc4)cc3)ccc2/C1=C/c1ccc[nH]1	N
CCCCC/C=C/C(C)=C/C1CC(C)C/C=C/CCC(O)C(OC(N)=O)CCC(C)CC(O)C(C)C(=O)O1 (stereo not drawn)	N
O=C1c2cccc3c(-c4ccc5c(c4)ncn5C4CCCCC4)ccc(c23)C(=O)N1CCO	N
O=C(Nc1cccc(C(=O)N2CCc3ccc(Cl)cc32)c1)c1ccco1	N
CCN1C(=O)/C(=C/C(=O)OC)S/C1=N\NC(=O)c1cc2ccc1/C=C\c1ccc(cc1)/C=C\2	N
O=C(NO)c1ccc(-n2nc(-c3ccccc3)c3ccccc32)cc1	N
O=C(Nc1ncc(Cc2cc(Cl)ccc2Cl)s1)c1cccs1	N
COc1ccc(/C=C/c2nc(Nc3ccc(S(=O)(=O)Nc4nc(C)cc(C)n4)cc3)c3ccccc3n2)cc1	N
COc1ccc(C(=O)c2cc(C)c(OC)c(C)c2)c(OC)c1N(C(=O)CCl)C(=O)CCl	N
Cn1ccnc1C(=O)/C=C/c1ccc(CC(=O)Nc2ccc(F)cc2)cc1	N
CN1C(=O)NC(c2ccc3c(c2)OCO3)C=C1c1ccccc1 (stereo not drawn)	N
COCc1cnccc1NC1CCCCCC1	N
Cc1cnc(C(=O)Nc2nc3ccc(S(=O)(=O)Nc4ccc(C5(C(F)(F)F)CC5)cc4)cc3[nH]2)cn1	N
COC1=CC(=O)c2ccccc2C1=O	N
C=C1C(=O)O[C@H]2[C@H]1CC/C(CNC(=O)/C=C/c1ccccc1)=C\CC[C@@]1(C)O[C@@H]21	N
CC(C)(C)[Si](C)(C)OC1[C@@H](O[Si](C)(C)C(C)(C)C)[C@@H](CNC(=O)NC(=O)CCl)O[C@H]1n1cnc2c(NC(=O)Nc3ccccc3)ncnc21 (stereo partly drawn)	Y
CC1=CCC(OC(=O)C(C)(O)CCC(O)(C(=O)OC2(C)C=CC(O)(C(C)C)CC2)C(C)C)(C(C)C)CC1 (stereo not drawn)	N
N/C(=N\C(N)=N\c1nc2ccccc2s1)c1cnccn1	N
COc1ccc(C(=O)c2cc(C)c(OC)c(C)c2)c(OC)c1NC(C)=O	N
Cc1nc2sccn2c1-c1cn2ccsc2n1	N
C=C(C)[C@@H]1CC[C@]2(C(=O)N3CCN(C)CC3)CC[C@]3(C)[C@H](CC[C@@H]4[C@@]5(C)C/C(=C/c6cccnc6)C(=O)C(C)(C)[C@@H]5CC[C@]43C)[C@@H]12	N
CCCOc1ccc(/C=N/Nc2cc(C)nc3ccc(Br)cc23)cc1	N
Cc1nnc2c(Cc3ccccc3)nc3ccccc3n12	N
CCOC(=O)c1cc(C#N)n2ccc3ccccc3c12	N
Nc1c(C(=O)Nc2cccc3cnccc23)sc2nc3c(cc12)C(=O)CCC3	N
O=C1Nc2cc(-c3ccc(NC(=O)c4ccccc4)cc3)ccc2/C1=C/c1ccc[nH]1	N
